system: Human immunodeficiency virus 1; assay: Antiviral activity against HIV1 in MT4 cell line; format: functional, organism-based; settings: Human immunodeficiency virus 1, MT4; read-out: Log EC50 (converted)
ASSAY_ENDPOINT: EC50 (nM)
Just the number please, in nM, no unit attached.

Incoming: Given `CCOC(=O)NNC(=O)c1[nH]c2ccc(Cl)cc2c1S(=O)(=O)c1cc(C)cc(C)c1` , respond with its EC50.
Outgoing: 20

Incoming: Look up and state reported EC50 for `Cc1cc(C)cc(S(=O)(=O)c2c(C(=O)NNC(=O)NN)[nH]c3ccc(Cl)cc23)c1`
Outgoing: 10

Incoming: State its EC50: `O=C(NN1CCOC1=O)c1[nH]c2ccc(Cl)cc2c1S(=O)(=O)c1ccccc1`
Outgoing: 15

Data credit: ChEMBL document CHEMBL1147813
